Tested on: DLD-1
Assay: NCI tumour cell line growth inhibition, 48 h
Calls of active or inactive are those of the source. No stated cut-off is given here; in the data, active = GI50 up to about 1.1 µM and inactive = higher.
Hi there, use one of these labels in your reply, thanks! active, inactive

See these solved cases before continuing.
{"compound": "CC(C)c1cccc(C(C)C)c1NC(=O)C(=O)C1SC(=S)NC1=O (stereo unspecified)", "class.name": "inactive"}
{"compound": "O=C(CCc1nnc(S)[nH]1)Nc1cccc(C(F)(F)F)c1", "class.name": "inactive"}
{"compound": "COC1=C(N)C(=O)c2nc(-c3nc(C(=O)O)c(C)c(-c4ccc(OC)c(OC)c4O)c3N)ccc2C1=O [STREPTONIGRIN]", "class.name": "active"}
{"compound": "O=C(CSSCC(=O)Nc1ccc(Br)cc1)Nc1ccc(Br)cc1", "class.name": "inactive"}

Would you mind telling me which call this test gave N#CC(C(=O)C(=O)Nc1ccc(Cl)c(Cl)c1)c1ccc(Cl)cc1 (stereo unspecified) ?
inactive

Would you mind telling me which call this test gave `C(=N\OCc1ccccc1)/c1ncccc1C1OCCO1` ?
inactive

Would you mind telling me which call this test gave `Cl[Si]1(Cl)Oc2ccccc2O[Si](Cl)(Cl)Oc2ccccc2O1` ?
inactive

Would you mind telling me which call this test gave CCN1CCC(O)(/C=C/c2ccc(Cl)cc2)C(C(=O)/C=C/c2ccc(Cl)cc2)C1 (stereo unspecified) ?
inactive
